Each item that follows carries a reported IC50.
target: Syk (Homo sapiens, UniProt P43405); construct: purchased Carna Biosciences; assay: Syk HTRF assay; format: biochemical; conditions: read-out: Activity Level (Syk HTRF assay IC50)

{"Compound": "CNC(=O)c1ccc(Nc2nc3cccc(-c4cccc(-c5cnc[nH]5)c4)n3n2)cc1 [compound 7]", "IC50": "0.005 to 250 nM"}
{"Compound": "CC1(C)NC(=O)c2cc(Nc3nc4cccc(N[C@H]5CC[C@@H](O)CC5)n4n3)ccc21 [compound 120]", "IC50": "250 to 500 nM"}
{"Compound": "CN1Cc2cc(Nc3nc4cccc(NC5CCOCC5)n4n3)ccc2C1=O [Example 144]", "IC50": "1000 to 10000 nM"}
{"Compound": "FC(F)(F)c1n[nH]c2cc(Nc3nc4cccc(NC5CCOCC5)n4n3)ccc12 [compound 129]", "IC50": "250 to 500 nM"}
{"Compound": "c1ccc(-c2cccc3nc(Nc4ccc5[nH]ncc5c4)nn23)cc1 [compound 61]", "IC50": "0.005 to 250 nM"}
{"Compound": "c1ccc(-c2cccc3nc(Nc4ccncc4)nn23)cc1 [compound 58]", "IC50": "500 to 1000 nM"}
{"Compound": "CN(c1cccc2nc(Nc3ccc4c(c3)NC(=O)C4(C)C)nn12)C1CCOCC1 [Example 158]", "IC50": "0.005 to 250 nM"}
{"Compound": "CN(CCO)c1cccc2nc(Nc3ccc4c(c3)NC(=O)C4(C)C)nn12 [Example 153]", "IC50": "0.005 to 250 nM"}
{"Compound": "Cc1cc(Nc2nc3cccc(CC4CCOCC4)n3n2)cc2c1C(C)(C)C(=O)N2 [compound 126]", "IC50": "0.005 to 250 nM"}
{"Compound": "O=C1CN(Cc2cccc3nc(Nc4ccc5c(C(F)(F)F)n[nH]c5c4)nn23)CCN1 [Example 155]", "IC50": "0.005 to 250 nM"}
{"Compound": "CNC(=O)c1ccc(Nc2nc3cccc(-c4ccccc4Cl)n3n2)cc1 [compound 22]", "IC50": "1000 to 10000 nM"}
{"Compound": "CNC(=O)c1ccc(Nc2nc3cccc(-c4cccc(O)c4)n3n2)cc1 [compound 36]", "IC50": "0.005 to 250 nM"}
{"Compound": "CN1Cc2cc(Nc3nc4cccc(CC5CCOCC5)n4n3)ccc2C1=O [Example 145]", "IC50": "500 to 1000 nM"}
{"Compound": "CC1(C)C(=O)Nc2cc(Nc3nc4cccc(Cc5cc[nH]c(=O)c5)n4n3)ccc21 [Example 156]", "IC50": "0.005 to 250 nM"}
{"Compound": "Oc1cccc(-c2cccc3nc(Nc4ccc5cnoc5c4)nn23)c1 [compound 14]", "IC50": "0.005 to 250 nM"}
{"Compound": "CNC(=O)c1ccc(Nc2nc3cccc(-c4cc(Cl)cc(-c5ccccc5C(N)=O)c4)n3n2)cc1 [compound 5]", "IC50": "0.005 to 250 nM"}

---

target: Syk (Homo sapiens); construct: purchased Carna Biosciences; assay: Syk HTRF assay; type: biochemical; settings: activity levels A-D, read-out: Activity Level (IC50 in the Syk HTRF assay)
Each item that follows carries a reported IC50.

{"Compound": "CC(C)(O)[C@H]1CC[C@@H](Nc2cccc3nc(Nc4ccc(C(F)(F)F)cc4)nn23)CC1 [Example 385]", "IC50": "500 to 1000 nM"}
{"Compound": "O=C1CN(Cc2cccc3nc(Nc4ccc(C(F)(F)F)cc4)nn23)C(=O)N1 [Example 252]", "IC50": "1000 to 10000 nM"}
{"Compound": "O=C1NCc2cc(Nc3nc4cccc(N[C@H]5CC[C@@H](O)CC5)n4n3)ccc21 [Example 253]", "IC50": "0.005 to 250 nM"}
{"Compound": "CNC(=O)c1ccc(Nc2nc3cccc(Cc4cccc(O)c4)n3n2)cc1 [Example 292]", "IC50": "0.005 to 250 nM"}
{"Compound": "CNC(=O)c1ccc(Nc2nc3cccc(N[C@H]4CC[C@@H](N)CC4)n3n2)cc1 [Example 360]", "IC50": "500 to 1000 nM"}
